target: myeloperoxidase (Homo sapiens (Human)); assay: MPO Peroxidation Assay (Amplex Red Assay); type: biochemical; settings: potency range class
Sequence (P05164 49-745): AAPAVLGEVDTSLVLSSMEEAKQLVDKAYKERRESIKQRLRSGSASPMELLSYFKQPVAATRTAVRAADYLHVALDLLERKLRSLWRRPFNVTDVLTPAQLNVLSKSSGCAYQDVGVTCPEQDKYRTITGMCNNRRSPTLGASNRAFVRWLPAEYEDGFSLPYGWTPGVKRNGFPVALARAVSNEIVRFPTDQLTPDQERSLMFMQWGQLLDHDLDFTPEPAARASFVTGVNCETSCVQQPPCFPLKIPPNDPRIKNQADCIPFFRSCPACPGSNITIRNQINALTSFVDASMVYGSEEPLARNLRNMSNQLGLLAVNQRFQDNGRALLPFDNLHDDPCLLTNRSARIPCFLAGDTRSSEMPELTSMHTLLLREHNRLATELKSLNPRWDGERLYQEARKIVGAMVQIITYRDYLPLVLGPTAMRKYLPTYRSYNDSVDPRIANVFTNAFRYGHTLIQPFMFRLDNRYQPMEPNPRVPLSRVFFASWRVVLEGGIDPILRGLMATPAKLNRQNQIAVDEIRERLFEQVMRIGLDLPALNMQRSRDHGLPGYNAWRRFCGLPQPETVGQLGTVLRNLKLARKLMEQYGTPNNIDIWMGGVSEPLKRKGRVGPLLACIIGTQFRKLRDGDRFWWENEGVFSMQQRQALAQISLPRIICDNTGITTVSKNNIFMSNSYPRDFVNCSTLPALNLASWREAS
For each entry below, report its IC50 value.

{"columns": ["Compound", "IC50"],
 "data": [
  ["Nc1cc(C(CCCc2ccccc2)c2cnn(Cc3cccc(C4CCNCC4)c3)c2)c2nn[nH]c2n1 (stereo not shown) [Example 13]", "0.101 to 0.999 µM"],
  ["Nc1cc(C(CCCC2CCc3ccccc32)c2cnn(Cc3ccc4c(c3)CCNC4)c2)c2nn[nH]c2n1 (stereo not shown) [Example 8]", "1 to 10 µM"],
  ["Nc1cc(C(CCN[C@H]2CC[C@H](c3ccccc3)CC2)c2cnn(CCC(F)(F)F)c2)c2nn[nH]c2n1 (stereo partly shown) [Example 30]", "0.101 to 0.999 µM"],
  ["Nc1cc(C(CCN[C@H]2CC[C@H](c3ccccc3)CC2)c2cnn(Cc3cccc(C(F)(F)F)c3)c2)c2nn[nH]c2n1 (stereo partly shown) [Example 31]", "0.101 to 0.999 µM"],
  ["Nc1cc(C(CCN[C@H]2CC[C@H](c3ccccc3)CC2)c2cnn(Cc3cc(F)cc(F)c3)c2)c2nn[nH]c2n1 (stereo partly shown) [Example 26]", "0.101 to 0.999 µM"]
]}

Go through the list and state IC50 for each entry.
1. Nc1cc(C(CCN[C@H]2CC[C@H](c3ccccc3)CC2)c2cnn(Cc3ccccc3)c2)c2nn[nH]c2n1 (stereo partly shown) [Example 18]
2. Nc1cc(C(CCC2CCOCC2)c2cnn(Cc3ccc4c(c3)CCNC4)c2)c2nn[nH]c2n1 (stereo not shown) [Example 10]
3. Nc1cc(C(CCN[C@H]2CC[C@H](c3ccccc3)CC2)c2cn[nH]c2)c2nn[nH]c2n1 (stereo partly shown) [Example 22]

Response given:
["0.001 to 0.1 µM", "0.101 to 0.999 µM", "1 to 10 µM"]

Go through the list and state IC50 for each entry.
1. Nc1cc(C(CCN[C@H]2CC[C@H](c3ccccc3)CC2)c2ccc(F)nc2)c2nn[nH]c2n1 (stereo partly shown) [Example 45]
2. Nc1cc(C(CCN[C@H]2CC[C@H](c3ccccc3)CC2)c2cnn(C3CC(F)C3(F)F)c2)c2nn[nH]c2n1 (stereo partly shown) [Example 29]
3. Nc1cc(C(CCN[C@H]2CC[C@H](c3ccccc3)CC2)c2cnn(Cc3cccc(OC(F)F)c3)c2)c2nn[nH]c2n1 (stereo partly shown) [Example 25]

Response given:
0.101 to 0.999 µM
0.101 to 0.999 µM
0.101 to 0.999 µM

Go through the list and state IC50 for each entry.
1. Nc1cc(C(CCN2C[C@H](Cc3ccccc3)[C@@H](O)C2)c2cnn(Cc3cccc(O)c3)c2)c2nn[nH]c2n1 (stereo partly shown) [Example 43]
2. Nc1cc(C(CCCC2NCCc3ccccc32)c2cnn(Cc3ccccc3)c2)c2nn[nH]c2n1 (stereo not shown) [Example 14]
3. Nc1cc(C(CCNCc2cccc(CO)c2)c2cnn(Cc3cccc(O)c3)c2)c2nn[nH]c2n1 (stereo not shown) [Example 48]
4. Nc1cc(C(CCN[C@H]2CC[C@H](c3ccccc3)CC2)c2cnn(C3CCC3(F)F)c2)c2nn[nH]c2n1 (stereo partly shown) [Example 28]
5. Nc1cc(C(CCN[C@H]2C[C@H](Cc3ccccc3)[C@@H](O)C2)c2cnn(CCc3cccc(O)c3)c2)c2nn[nH]c2n1 (stereo partly shown) [Example 54]

Response given:
["1 to 10 µM", "0.101 to 0.999 µM", "1 to 10 µM", "0.101 to 0.999 µM", "1 to 10 µM"]

The reported measurements were obtained from patent US11059818B2.
